Test system: Plasmodium berghei
Assay: Luciferase/luciferin-expressing antifolate-resistant parasites were used to infect a culture of HepG2 cells that were pre-incubated with compounds. Infected hepatocytes emit light due to the luciferase reaction. Assay results are presented as the percent inhibition of light emission compared to control. […]
Type: functional
Conditions: sporozoite, HEPG2TOX_HILL_SLOPE 1.78, HEPG2TOX_R_SQUARED 0.499, PBLUC_HILL_SLOPE 5.62, PBLUC_R_SQUARED 0.563, read-out: LUCIFERASE INFECTION ASSAY - IC50
pIC50: −log10 of the molar value.
Attribute Measured: pIC50

Clc1cnc(N/N=C/c2sc(N3CCCCC3)nc2-c2cccs2)c(Cl)c1 | 5.17

The origin of these recorded values is ChEMBL document CHEMBL4483862.
